Molecular target: Estrogen receptor beta (Homo sapiens)
Test: Agonist activity at ERbeta expressed in HEK293 cells at 10 uM after 24 hrs by luciferase reporter gene assay relative to 3,17-beta-estradiol
Assay type: functional, cell-based
ASSAY READOUT: Activity (%)

Below, 4 compounds whose answers are already recorded.
- O=C(CCCc1ccc(O)c(O)c1)CC(O)Cc1ccccc1 (racemic): -0.8
- c1ccc(CCCC2=NOC(Cc3ccccc3)C2)cc1 (stereo not given): 5.1
- O=C(CCc1ccccc1)CC(O)c1ccccc1 (single isomer, unassigned): 2.8
- Oc1ccc(CCCC2=NOC(Cc3ccccc3)C2)cc1O (single isomer, unassigned; 27a): 1.3

[1] O=C(CCCc1ccc(O)cc1)CC(O)c1cccc(O)c1 (single isomer, unassigned)
[2] Oc1ccccc1CCC1=NOC(CCc2ccccc2)C1 (single isomer, unassigned)
[3] CC1(c2ccccc2)CC(CCc2ccccc2O)=NO1 (single isomer, unassigned; 37b)
[4] Oc1ccc(CCCC2=NOC(Cc3ccccc3)C2)cc1 (stereo in doubt; 24a)
[5] CC1(c2ccccc2)CC(CCc2ccccc2)=NO1 (single isomer, unassigned; 36b)
Ask: Ascending by Activity, please. Answer with the labels in sequence, matching the requested order.
Result: 5, 2, 3, 1, 4
(5: -7.3%, 2: 4.2%, 3: 30%, 1: 43.5%, 4: 78.2%)
